Target: T1, murine Jagged 2-Fc (R&D Systems) (murine, UniProt Q9QYE5 24-1082, limits assumed)
T1 construct: Bought reagent, cited as ibid. although no catalogue number is printed anywhere; also called m Jagged 2; not shown: Fc part
T1 sequence (Q9QYE5 24-1082 limits assumed): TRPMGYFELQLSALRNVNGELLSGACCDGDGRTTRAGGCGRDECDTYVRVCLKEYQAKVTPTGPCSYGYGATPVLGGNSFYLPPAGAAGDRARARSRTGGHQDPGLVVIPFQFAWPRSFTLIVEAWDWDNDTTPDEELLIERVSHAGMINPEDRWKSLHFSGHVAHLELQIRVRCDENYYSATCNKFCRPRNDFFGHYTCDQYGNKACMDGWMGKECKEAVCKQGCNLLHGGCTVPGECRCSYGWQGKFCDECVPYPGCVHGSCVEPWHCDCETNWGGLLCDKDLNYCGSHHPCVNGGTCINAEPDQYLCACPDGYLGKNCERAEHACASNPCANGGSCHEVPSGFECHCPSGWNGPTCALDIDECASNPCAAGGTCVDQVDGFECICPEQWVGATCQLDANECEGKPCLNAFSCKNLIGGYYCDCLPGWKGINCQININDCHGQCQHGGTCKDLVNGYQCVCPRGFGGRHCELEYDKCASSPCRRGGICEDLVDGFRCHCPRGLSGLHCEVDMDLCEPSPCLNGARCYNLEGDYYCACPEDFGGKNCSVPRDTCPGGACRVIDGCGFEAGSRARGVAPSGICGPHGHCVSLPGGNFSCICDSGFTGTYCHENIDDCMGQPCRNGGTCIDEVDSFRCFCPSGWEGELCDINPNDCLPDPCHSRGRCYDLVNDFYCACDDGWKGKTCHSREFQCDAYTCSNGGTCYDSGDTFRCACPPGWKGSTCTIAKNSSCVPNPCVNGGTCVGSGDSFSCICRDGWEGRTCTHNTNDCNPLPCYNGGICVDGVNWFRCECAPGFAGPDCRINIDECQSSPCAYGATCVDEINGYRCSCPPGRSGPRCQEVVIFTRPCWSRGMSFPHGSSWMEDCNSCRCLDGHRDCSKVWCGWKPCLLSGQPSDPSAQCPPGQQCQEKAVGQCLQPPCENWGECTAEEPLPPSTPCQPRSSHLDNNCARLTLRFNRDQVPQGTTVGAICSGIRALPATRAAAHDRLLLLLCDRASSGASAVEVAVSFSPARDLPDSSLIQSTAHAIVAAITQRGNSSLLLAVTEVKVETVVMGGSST
Experiment: BLI (Octet), Jagged-Fc on anti-human Fc tips, Fab in solution
measure: koff (s⁻¹)
One number for each entry, in s⁻¹.

Below: 2 binders and their reported koff.
# binder, koff [s⁻¹]
data = [
    ("4E11 Fab (Fab, V domains shown, C-terminally His-tagged Fab from the periplasm of E. coli) VH: EVQLLESGGGLVQPGGSLRLSCAASGFTFSSYAMSWVRQAPGKGLEWVSSIEPMGQLTEYADSVKGRFTISRDNSKNTLYLQMNSLRAEDTAVYYCAKDIGGRSAFDYWGQGTLVTVSS VL: DIQMTQSPSSLSASVGDRVTITCRASQSISSYLNWYQQKPGKAPKLLIYAASSLQSGVPSRFSGSGSGTDFTLTISSLQPEDFATYYCQQALDAPLMFGQGTKVEIKR", "2.5e-05"),
    ("anti-Jagged 13 Fab (Fab, V domains shown, Fab expressed in E. coli; also called Jag13) VH: EVQLLESGGGLVQPGGSLRLSCAASGFTFSSYAMSWVRQAPGKGLEWVSSIETQGPTTLYADSVKGRFTISRDNSKNTLYLQMNSLRAEDTAVYYCAKTSSAFDYWGQGTLVTVSS VL: DIQMTQSPSSLSASVGDRVTITCRASQSISSYLNWYQQKPGKAPKLLIYASSLQSGVPSRFSGSGSGTDFTLTIGSLQPEDFATYYCQQNVATPLTFGQGTKVEIKR", 0.0028),
]

Next up:
Give koff for 4D11 Fab (Fab, V domains shown, C-terminally His-tagged Fab from the periplasm of E. coli; also called anti-Jagged Fab 4D11; Fab 4D11) VH: EVQLLESGGGLVQPGGSLRLSCAASGFTFSSYAMSWVRQAPGKGLEWVSSIDPEGRQTYYADSVKGRFTISRDNSKNTLYLQMNSLRAEDTAVYYCAKDIGGRSAFDYWGQGTLVTVSS VL: DIQMTQSPSSLSASVGDRVTITCRASQSISSYLNWYQQKPGKAPKLLIYAASSLQSGVPSRFSGSGSGTDFTLTISSLQPEDFATYYCQQTVVAPPLFGQGTKVEIKR
0.00042

These entries and their values trace back to patent US20190367589A1.
